Reference source: patent US20060084675A1

tested on: G-599GM cell line; assay: Growth inhibition assay (incl. isobolographic analysis); type: cell-based; settings: Homo sapiens; single drug; read-out: IC50, drug alone
attribute.measured: IC50
Answer format: number, then unit.

The reported G-599GM cell line IC50 of C[C@H]1[C@H](OC(=O)CCC(=O)O)O[C@@H]2O[C@@]3(C)CC[C@H]4[C@H](C)CC[C@@H]1[C@@]24OO3 [ART, artesunate] is 4.2 µM
